tested on: pSTAT1(2)-luciferase reporter in HeLa cells triggered with human OSM; assay: JAK-STAT signalling assay; format: cell-based; settings: Homo sapiens, HeLa, HeLa cells, pSTAT1(2)-luciferase reporter, human OSM 33 ng/mL; read-out: JAK-STAT IC50
pIC50: −log10 of the molar value.
Listing of entries alongside the reported pIC50.

Worked cases, answers included:
CCc1cc(C2=CCN(C(=O)C3(O)CC3)CC2)ccc1N(C)c1cc2c(cn1)ncn2C; 6.30 to 9.00
CCc1cc(C2CCN(S(C)(=O)=O)CC2)ccc1N(C)c1cc2c(cn1)ncn2C; 6.30 to 9.00
CCc1cc(-c2ccc(C#N)nc2)ccc1N(C)c1cc2c(cn1)ncn2C; 6.30 to 9.00

We next turn to a different compound, shown below.
Ask: Name the reported pIC50 value associated with the compound CCc1cc(-c2ccc(C)nc2)ccc1N(C)c1cc2c(cn1)ncn2C
Reply: 6.00 to 6.30
